- method description: Solubility in organic solvents and aqueous media
- Assay type: physicochemical
- assay context: water
readout name: solubility

Request: Answer with reported solubility of CC(C(=O)O)c1cccc(NC(=O)NCC(=O)N2C(C(=O)OC(C)(C)C)CSC2c2ccccc2F)c1 (stereo not shown)
Response: 100 µg/mL

###

- method description: Solubility in organic solvents and aqueous media
- Type: physicochemical
- assay context: diethyl ether, organic solvent or mixture
readout name: solubility (mg/mL)
Just the number in mg/mL, nothing appended.

Request: Answer with reported solubility of CC(C(=O)O)c1cccc(NC(=O)NCC(=O)N2C(C(=O)OC(C)(C)C)CSC2c2ccccc2F)c1 (stereo not shown)
Response: 100

###

- method description: Solubility in organic solvents and aqueous media
- Assay type: physicochemical
- assay context: ethanol, organic solvent or mixture
readout name: solubility (mg/mL)
Just the number in mg/mL, nothing appended.

Request: Answer with reported solubility of CC(C(=O)O)c1cccc(NC(=O)NCC(=O)N2C(C(=O)OC(C)(C)C)CSC2c2ccccc2F)c1 (stereo not shown)
Response: 1000

###

- method description: Solubility in organic solvents and aqueous media
- Type: physicochemical
- assay context: acetone, organic solvent or mixture
readout name: solubility (mg/mL)
Just the number in mg/mL, nothing appended.

Request: Answer with reported solubility of CC(C(=O)O)c1cccc(NC(=O)NCC(=O)N2C(C(=O)OC(C)(C)C)CSC2c2ccccc2F)c1 (stereo not shown) [RPR 102681]
Response: 250

###

- method description: Solubility in organic solvents and aqueous media
- Type: physicochemical
- assay context: toluene, organic solvent or mixture
readout name: solubility (mg/mL)
Just the number in mg/mL, nothing appended.

Request: Answer with reported solubility of CC(C(=O)O)c1cccc(NC(=O)NCC(=O)N2C(C(=O)OC(C)(C)C)CSC2c2ccccc2F)c1 (stereo not shown)
Response: 100

###

- method description: Solubility in organic solvents and aqueous media
- Format: physicochemical
- assay context: dimethylformamide, organic solvent or mixture; dimenthylformamide
readout name: solubility (mg/mL)
Just the number in mg/mL, nothing appended.

Request: Answer with reported solubility of CC(C(=O)O)c1cccc(NC(=O)NCC(=O)N2C(C(=O)OC(C)(C)C)CSC2c2ccccc2F)c1 (stereo not shown) [RPR 102681]
Response: 1000

###

- method description: RPR 102681 plasma concentration by LC/MS/MS
- Assay type: in vivo, humans
- assay context: human, plasma; 95 minutes post dose, 400 mg b.i.d. oral; read-out: mean plasma concentration (3-day average)
- Procedure: […] Pharmacokinetics (peak and trough levels) of RPR 102681 during treatment at a dose of 200 mg (day 13), 400 mg (day 20) and 800 mg (day 27) b.i.d. were determined. The plasma concentration of RPR 102681 was determined with a validated liquid chromatography assay with mass spectrometric detection (LC/MS/MS) at the Department of Biopharmaceutical Sciences, University of California, San Francisco, Calif. […]
readout name: concentration at 95 min (ng/mL)
Just the number in ng/mL, nothing appended.

Request: Answer with reported concentration at 95 min of CC(C(=O)O)c1cccc(NC(=O)NCC(=O)N2C(C(=O)OC(C)(C)C)CSC2c2ccccc2F)c1 (stereo not shown)
Response: 422

###

- method description: RPR 102681 plasma concentration by LC/MS/MS
- Type: in vivo, humans
- assay context: human, plasma; 215 minutes post dose, 200 mg b.i.d. oral; read-out: mean plasma concentration (3-day average)
readout name: concentration at 215 min

Request: Answer with reported concentration at 215 min of CC(C(=O)O)c1cccc(NC(=O)NCC(=O)N2C(C(=O)OC(C)(C)C)CSC2c2ccccc2F)c1 (stereo not shown)
Response: 140 ng/mL

###

- method description: Solubility in organic solvents and aqueous media
- Assay type: physicochemical
- assay context: ethyl acetate, organic solvent or mixture
readout name: solubility

Request: Answer with reported solubility of CC(C(=O)O)c1cccc(NC(=O)NCC(=O)N2C(C(=O)OC(C)(C)C)CSC2c2ccccc2F)c1 (stereo not shown) [RPR 102681]
Response: 400 mg/mL

###

- method description: RPR 102681 plasma concentration by LC/MS/MS
- Type: in vivo, humans
- assay context: human, plasma; 95 minutes post dose, 200 mg b.i.d. oral; read-out: mean plasma concentration (3-day average)
readout name: concentration at 95 min (ng/mL)
Just the number in ng/mL, nothing appended.

Request: Answer with reported concentration at 95 min of CC(C(=O)O)c1cccc(NC(=O)NCC(=O)N2C(C(=O)OC(C)(C)C)CSC2c2ccccc2F)c1 (stereo not shown)
Response: 242

###

- method description: RPR 102681 plasma concentration by LC/MS/MS
- Assay type: in vivo, humans
- assay context: human, plasma; 95 minutes post dose, 800 mg b.i.d. oral; read-out: mean plasma concentration (3-day average)
readout name: concentration at 95 min (ng/mL)
Just the number in ng/mL, nothing appended.

Request: Answer with reported concentration at 95 min of CC(C(=O)O)c1cccc(NC(=O)NCC(=O)N2C(C(=O)OC(C)(C)C)CSC2c2ccccc2F)c1 (stereo not shown)
Response: 441

###

- method description: RPR 102681 plasma concentration by LC/MS/MS
- Assay type: in vivo, humans
- assay context: human, plasma; 215 minutes post dose, 400 mg b.i.d. oral; read-out: mean plasma concentration (3-day average)
readout name: concentration at 215 min (ng/mL)
Just the number in ng/mL, nothing appended.

Request: Answer with reported concentration at 215 min of CC(C(=O)O)c1cccc(NC(=O)NCC(=O)N2C(C(=O)OC(C)(C)C)CSC2c2ccccc2F)c1 (stereo not shown)
Response: 255

Hey, just so you know, these numbers are from patent US8592466B2.
